Listing: protein stability index of selected sequences
PROCEDURE_TEXT: protein stability index of a GFP-peptide fusion (GPS, HEK-293T) (PSI 1-6); higher = more stable;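 note: 24-mer peptide tiles fused after GFP, lentivirally expressed, FACS-sorted into six equal bins by GFP/DsRed ratio, decoded by Illumina sequencing, PSI is the read-weighted mean bin number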
RECORDED_CONDITIONS: treatment: MLN4924 1 uM, 8 h; c terminus: a fixed tail appended

| QUERY_SEQUENCE | protein stability index |
| --- | --- |
| DVEVPASVTGYSFASDGDSGTCSP [ADD1] | 5.29 |
| SNTRDRYGRSWESYSSCGDFHYCD [RBMY1A1] | 2.91 |
| RHLAHSMLQRAIAYQHSGHLESKD [C10orf62] | 3.92 |
| MWAHSMTVQDYQDLIDRGWRRSGK [ATE1] | 3.27 |
| AALLQLVRRLQALRLEREEYVLLK [ESRRA] | 1.95 |
| PSLEELGFDTDGLSSAVWPGGETE [CRY1] | 5.29 |
| MGNLVMFRKDSVLNILIQSLDWET [INTS3] | 2.82 |
| SSNLLDLKNPFFRYTGTTPSPPPG [CARM1] | 3.42 |
| CHRRYSCAHCRAHLANHDDLISKS [YPEL3] | 2.81 |
| DMSIGGNLSKTQNMERFGEDNLED [CDC14A] | 5.34 |
| CIQQILEAVLHCHQMGVVHRDLKP [CAMK2A] | 3.03 |
| ALRQSVEADINGLRRVLDELTLSK [KRT13] | 3.09 |
| DGKLSFEEFKAYFADGVLSGEELH [NECAB1] | 4.14 |
| LNLGSGTGYLSTMVGLILGPFGIN [PCMTD1] | 2.87 |
| TLQHWPHIIRIGDLKPTGEIPKQV [DENND6A] | 2.74 |
| EYVAIKLEPMKSRAPQLHLEYRFY [CSNK1G3] | 2.93 |
| ISEAFSQRVGFGDDFDEDELMAEL [CHMP4C] | 5.07 |
| AWFGFAGTPGYLSPEVLRKDPYGK [CAMK2A] | 2.88 |
| PAMAASKALGSDLDSSLASLVGNL [SNAP91] | 3.95 |
| AVIDSEKDMNFLKRYAGREEHWVG [CD69] | 3.08 |
| CADVILVLQERVRIFAHKIYLSTS [RHOBTB2] | 3.02 |
| LLYKDGFSTILHLLLGSPHPAATA [LPCAT4] | 2.57 |
| LRGGGQVLLGWTLHYFPFFLMGRV [POMT2] | 2.99 |
| QAAPGALPVSSPEPPPALPPAADA [TRIM55] | 5.37 |
| PPHPAPAPQHPAASALRTRMTGGR [DYRK1B] | 4.9 |
| WAQLEAPARLLLQALQAGPEGARR [FANCE] | 3.08 |
| PGGGRGALLDQIRQGIQLNKTPGA [WAS] | 4.99 |
| NLQSLKTPTLKVFMHENLYFTNRK [DCAF4] | 2.65 |
| ESGASIEDHNENGHTPLMEAGSAG [ANKRD17] | 5.35 |
| IGMPFNQLGTLAGSKYYNVEAMYC [SMG5] | 2.27 |
| WGFRLVGGRDFSAPLTISRVHAGS [PDLIM4] | 2.17 |
| QYVTFLRSFSDKQKISLLHSCTCV [ALG2] | 2.69 |
| GEGLRIYWGSPEEQSLLSRWNPWS [TPRG1] | 1.9 |

Origin of the recorded values: the supplement of paper PMC10567573
